ASSAYED_SYSTEM: UniProt:P35348
Sequence (P35348 whole entry): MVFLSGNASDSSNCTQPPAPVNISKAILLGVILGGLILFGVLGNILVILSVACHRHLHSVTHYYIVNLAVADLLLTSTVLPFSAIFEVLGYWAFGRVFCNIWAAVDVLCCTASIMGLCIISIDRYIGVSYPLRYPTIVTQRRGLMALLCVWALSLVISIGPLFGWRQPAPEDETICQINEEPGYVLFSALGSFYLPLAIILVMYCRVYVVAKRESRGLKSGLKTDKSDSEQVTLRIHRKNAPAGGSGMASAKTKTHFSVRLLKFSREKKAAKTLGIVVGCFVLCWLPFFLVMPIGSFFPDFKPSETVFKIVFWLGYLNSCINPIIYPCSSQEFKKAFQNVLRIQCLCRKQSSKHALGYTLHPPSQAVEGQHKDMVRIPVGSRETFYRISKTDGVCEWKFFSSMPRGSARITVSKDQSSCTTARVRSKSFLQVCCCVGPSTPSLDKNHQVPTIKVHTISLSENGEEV
Assay type: functional, cell-based
Examples of compounds with documented AC50 follow.

Previously resolved entries follow.
1. c1ccc2c(SC3=NCCN3)c[nH]c2c1 [TINAZOLINE] : 0.003 µM
2. CN(C)c1ccc(O)c2c1C[C@H]1C[C@H]3[C@H](N(C)C)C(O)=C(C(N)=O)C(=O)[C@@]3(O)C(O)=C1C2=O [MINOCYCLINE] : > 30 µM
3. C[C@]12C=CC(=O)C=C1CC[C@H]1[C@@H]3C[C@@H](O)[C@](O)(C(=O)CO)[C@@]3(C)C[C@H](O)[C@@]12F [TRIAMCINOLONE] : > 30 µM

Next up:
Which AC50 value is on record for `Cc1cc2c(cc1S(N)(=O)=O)S(=O)(=O)CCC2` ?
> 30 µM
